- Tested System: Cytoplasmic tyrosine-protein kinase BMX (Homo sapiens) (UniProt P51813)
- Sequence (P51813 whole entry): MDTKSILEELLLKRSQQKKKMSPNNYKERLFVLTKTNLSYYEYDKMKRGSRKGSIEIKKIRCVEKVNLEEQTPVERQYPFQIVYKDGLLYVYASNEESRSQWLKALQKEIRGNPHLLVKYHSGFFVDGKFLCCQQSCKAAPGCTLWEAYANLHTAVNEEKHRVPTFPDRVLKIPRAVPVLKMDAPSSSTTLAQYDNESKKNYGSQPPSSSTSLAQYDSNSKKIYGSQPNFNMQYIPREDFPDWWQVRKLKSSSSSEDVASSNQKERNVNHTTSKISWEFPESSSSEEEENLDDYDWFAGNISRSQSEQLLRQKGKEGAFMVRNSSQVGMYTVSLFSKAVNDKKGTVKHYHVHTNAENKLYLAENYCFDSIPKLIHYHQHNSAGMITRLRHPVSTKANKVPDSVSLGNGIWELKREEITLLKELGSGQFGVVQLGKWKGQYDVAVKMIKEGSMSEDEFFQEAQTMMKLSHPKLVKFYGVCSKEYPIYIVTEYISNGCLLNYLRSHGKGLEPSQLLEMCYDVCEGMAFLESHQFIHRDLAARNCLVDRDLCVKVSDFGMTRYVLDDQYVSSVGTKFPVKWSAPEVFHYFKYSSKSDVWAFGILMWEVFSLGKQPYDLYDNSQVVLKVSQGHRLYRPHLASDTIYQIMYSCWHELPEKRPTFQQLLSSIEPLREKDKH
- Run Parameters: at 0.1 µM
- Description: GSK_PKIS: BMX mean inhibition at 0.1 uM [Nanosyn]
Property Name: inhibition (%)
Express it in %; write the number only.

Fc1ccc(-c2nn3ccccc3c2-c2ccncc2)cc1; -1.75
COc1cc2ncn(-c3cc(OCc4ccccc4C(F)(F)F)c(C(=O)N(C)C)s3)c2cc1OC; 3.03
Cc1cccc2c1NC(=O)/C2=N\Nc1ccc(S(N)(=O)=O)cc1; -0.08
CNC(=O)c1cccc(C#Cc2cncnc2Nc2ccc(OCc3cccc(F)c3)c(Cl)c2)c1; -1.48

Find the measured inhibition of CCc1nn2ncccc2c1-c1ccnc(NC2CC2)n1 and report it. 3.6

Find the measured inhibition of COc1ccc(-c2nn3ncccc3c2-c2ccnc(Nc3ccc4c(c3)OCCO4)n2)cc1 and report it. 0.12

Find the measured inhibition of Nc1nc(-c2cccc(Cl)c2)c(-c2ccc3ncccc3n2)s1 and report it. 2.53
